Data origin: paper PMC8119466

Entries annotated with measured % Phosphatase Activity (compared to DMSO) PRL-1
Target: recombinant PRL-1 (Homo sapiens)
Construct: 6xHis (N, cleaved yes); made in house; host or cells: E. coli One Shot BL21 Star
Sequence (Q93096 1-173): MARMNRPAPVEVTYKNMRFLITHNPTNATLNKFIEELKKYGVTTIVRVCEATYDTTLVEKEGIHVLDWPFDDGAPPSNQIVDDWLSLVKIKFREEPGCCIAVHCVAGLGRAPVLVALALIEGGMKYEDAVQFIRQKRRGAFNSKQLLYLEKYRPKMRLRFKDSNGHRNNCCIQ
Assay: In vitro phosphatase assay (DiFMUP hydrolysis), PRL-1
Type: biochemical
Conditions: FDA-approved drug screen; activity compared to DMSO
measurement kind: % Phosphatase Activity (compared to DMSO) PRL-1 (%)

| compound | target or system | endpoint result |
| --- | --- | --- |
| C[N+]1(C)[C@@H]2C[C@@H](OC(=O)C(O)(c3cccs3)c3cccs3)C[C@H]1[C@@H]1O[C@@H]12 [Tiotropium Bromide hydrate] | recombinant PRL-1 (Homo sapiens) | 95 |
| Nc1ccc(C(=O)[O-])c(O)c1.[Na+] [Sodium 4-Aminosalicylate] | recombinant PRL-1 (Homo sapiens) | 90 |
| C=CC[C@@H]1/C=C(\C)C[C@H](C)C[C@H](OC)[C@H]2O[C@@](O)(C(=O)C(=O)N3CCCC[C@H]3C(=O)O[C@H](/C(C)=C/[C@@H]3CC[C@@H](O)[C@H](OC)C3)[C@H](C)[C@@H](O)CC1=O)[C@H](C)C[C@@H]2OC [Tacrolimus (FK506)] | recombinant PRL-1 (Homo sapiens) | 90 |

###

Catalogue of compounds with associated % Phosphatase Activity (compared to DMSO) PRL-1
target: recombinant PRL-1 (Homo sapiens, UniProt Q93096); construct: 6xHis (N, cleaved yes); made in house; host or cells: E. coli One Shot BL21 Star; assay: In vitro phosphatase assay (DiFMUP hydrolysis), PRL-1; type: biochemical; details: FDA-approved drug screen; compared to DMSO; also: test concentration or dose not given here
Where a name gives a salt, the structure may show the parent alone.
measurement kind: % Phosphatase Activity (compared to DMSO) PRL-1 (%)

| compound | units symbol | endpoint result |
| --- | --- | --- |
| CCOC(=O)[C@H](CCc1ccccc1)N[C@@H](C)C(=O)N1C(=O)N(C)C[C@H]1C(=O)O [Imidapril HCl] | % | 105 |
| CN(C)C(=O)Oc1ccc[n+](C)c1 [Pyridostigmine Bromide] | % | 106 |
| CC(C)C[C@H](NC(=O)[C@H](CCc1ccccc1)NC(=O)CN1CCOCC1)C(=O)N[C@@H](Cc1ccccc1)C(=O)N[C@@H](CC(C)C)C(=O)[C@@]1(C)CO1 | % | 97 |
| Cl.Fc1ccc([C@@H]2CCNC[C@H]2COc2ccc3c(c2)OCO3)cc1 [Paroxetine HCl] | % | 90 |
| C=CCNC(N)=S | % | 106 |
| CO[C@@H]1[C@@H](OC(N)=O)[C@@H](O)[C@H](Oc2ccc3c(O)c(NC(=O)c4ccc(O)c(CC=C(C)C)c4)c(=O)oc3c2C)OC1(C)C [Novobiocin Sodium] | % | 94 |
| CN(C)CCc1c[nH]c2ccc(CS(=O)(=O)N3CCCC3)cc12.O=C(O)CC(O)C(=O)O [Almotriptan Malate] | % | 97 |
